assayComment: Plasma free fraction by ultrafiltration
Type: in vitro ADME
conditions: Sprague-Dawley, rat, mean ± SEM, n = 5, read-out: parent free fraction in plasma
Protocol: kept on ice until analyzed. Radioactivity in whole blood and plasma, as well as homogenized tissue samples, was assessed using a well-type γ-counter using a 400– 1400 keV window (Perkin Elmer Wizzard2, USA). […] The plasma fp was determined using ultrafiltration units (Centrifree® 30K, […]
parameter: fraction unbound
Output spec: single numeric token, no unit.

(Q) Which value of fraction unbound has been reported for CC[C@@H](C)N(C)C(=O)c1nc2ccccc2c(-c2ccccc2)c1C[18F] [^18F-LW223] in the records?
(A) 0.385

---

targetSystem: TSPO (Homo sapiens, UniProt P30536)
Sequence (P30536 2-169): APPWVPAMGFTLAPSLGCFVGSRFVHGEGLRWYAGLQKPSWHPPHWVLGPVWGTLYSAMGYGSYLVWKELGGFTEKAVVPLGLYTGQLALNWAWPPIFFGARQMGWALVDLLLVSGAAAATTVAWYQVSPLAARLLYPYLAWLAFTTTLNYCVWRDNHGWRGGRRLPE
assayComment: In vitro competition binding assay with ^3H-PK11195 in human heart homogenates (HAB, MAB, LAB)
conditions: human heart
parameter: pKi
Conceptually, pKi converts a concentration in mol/L into minus its log10.

(Q) Reported pKi for "CC[C@@H](C)N(C)C(=O)c1nc2ccccc2c(-c2ccccc2)c1CF" : what is it?
(A) 8.77

---

targetSystem: TSPO (Homo sapiens, UniProt P30536)
assayComment: In vitro competition binding assay with ^3H-PK11195 in human brain homogenates (HAB, MAB, LAB)
conditions: human brain
parameter: pKi
Reminder that pKi is minus the log10 of a molar concentration.

(Q) pKi for "CC[C@@H](C)N(C)C(=O)c1nc2ccccc2c(-c2ccccc2)c1CF" ?
(A) 9.22
